tested on: EKVX NSCLC; experiment: NCI tumour cell line growth inhibition, 48 h
Quantity Name: TGI

Compound	TGI
C=C1C(=O)OC2C[C@@]3(C)CCCC(=C)C3CC12 (stereo not given in full)	31.5 µM

Ask: Give me measured TGI, please, for this compound: C#CC(O)/C=C/C(O)CCCC(O)CC#CC(O)C#CCCCCC(O)/C=C/CCCC(=O)CCCCCCCCCCCCCCCC(O)C(O)C#CC(=O)O (stereo not given)
Reply: > 25 µM

Ask: Hello, please tell me recorded TGI for this one: CCOC(=O)/C=C/c1ccc([N+](=O)[O-])o1
Reply: 80.7 µM

Ask: Input O=C1C=C(NCCc2ccccc2)c2ccccc2C1=O , output reported TGI.
Reply: 20.8 µM

Ask: Please list TGI recorded for the compound CCNc1ccc2c(c1)C(=O)N(OS(C)(=O)=O)C2=O
Reply: > 100 µM

Ask: Return value of TGI for input Oc1c(NCn2nc(CCCCCCCCc3nn(CNc4ccc5ccccc5c4O)c(=S)o3)oc2=S)ccc2ccccc12 , no commentary.
Reply: > 100 µM

Ask: Please look at this compound and report its TGI: COC1(C)CCC(OS(C)(=O)=O)CO1 (stereo not given)
Reply: > 100 µM

Ask: Give me measured TGI, please, for this compound: CCOP(=O)(OCC)C(c1ccccc1)N(C(=O)NC(F)(F)F)c1ccc(C)cc1 (stereo not given)
Reply: > 100 µM

Ask: Answer with the recorded TGI of COc1c2c(c(O)c3c4c(c(C)cc13)C1OC3(C(OC)OC5CC(C)(O)C(OC6CC(C)(O)C(O)C(C)O6)C(C)O5)OC1C(OC)(O4)C31CO1)C(=O)C(O)CC2OC1CC(C)(O)C(OC(C)=O)C(C)O1 (stereo not given) only.
Reply: 0.0336 µM
